experiment: adipocyte viability effects, profiling panel, cell-based, 3T3-L1 adipocytes, calcein-AM fluorescence, 48 h, basal (AID 1163); conditions: 3T3-L1 adipocytes viability, higher = more signal; further: test concentration not given here
Friendly reminder: z-score below 0.1 is satisfied, at or above is not satisfied.

compound	qualitative label
CC(CCN1CCCCc2nc(C)c(C)cc21)=NOC(C)CN1CCCc2nc(C)c(C)cc21 (centres undefined)	satisfied
C#CCCCON=C1C[C@@H](O)[C@@H](O)[C@@H]2[C@@H]3C(=O)N(Cc4ccccc4)C(=O)[C@@H]3CC[C@H]12	not satisfied
CO[C@H]1O[C@H](CO)[C@@H](OC(=O)Nc2ccc3c(c2)OCO3)[C@H](OC(=O)Nc2ccccc2-c2ccccc2)[C@@H]1OC(=O)Nc1ccccc1-c1ccccc1	satisfied
C[C@@H](c1ccccc1)N1C(=O)[C@H]2[C@H]3[C@H](O)[C@H](O)CC(=NNC(=O)OCc4ccccc4)[C@H]3CC[C@H]2C1=O	satisfied
CCCC[C@@H](O)C1=C(C)C[C@H]2C(=O)N(Cc3ccccc3)C(=O)[C@H]2[C@H]1CO	not satisfied
C[C@@H]1CC[C@H]2C(=O)O[C@H](COc3ccc(C(C)(C)C)cc3)CN2[C@H]1c1ccc(Br)cc1	satisfied
Cc1cc(C)c(-c2cc([C@H](C)ON=C3[C@H]4CCn5c(=O)n(-c6ccccc6)c(=O)n5[C@H]4[C@H](O)[C@@H]4O[C@H]34)on2)c(C)c1	satisfied
CCc1cc2c(nc1CC)CCN(CCC(C)=NOC[C@@H](O)COCc1ccco1)C2	not satisfied
[N-]=[N+]=NCc1ccccc1[C@@H]1OC(c2ccc(OCCCO)cc2)=N[C@]1(Cc1ccccc1)C(=O)N1CCOCC1	not satisfied
O=C1[C@H]2[C@H]3[C@H](O)[C@H](O)CC(=NOCc4ccccc4)[C@H]3CC[C@H]2C(=O)N1c1cccc(Oc2ccccc2)c1	satisfied
COC(=O)[C@@]1(Cc2ccc(F)cc2)[C@@H]2C(=CC(=O)[C@H]2CC(=O)C(=O)N(C)C)CN1C(=O)c1ccccc1	satisfied
CN(C)CCCNC(=O)[C@@H]1c2ccccc2C(=O)N(Cc2cc(F)cc(C(F)(F)F)c2)[C@H]1c1ccc(CO)cc1	not satisfied
COCCOC(=O)N1C(=O)[C@@]2(c3cc(C#CC4(O)CCCCCC4)ccc31)[C@H](c1ccc(OCCO)cc1)N1[C@H](c3ccccc3)[C@H](c3ccccc3)OC(=O)[C@H]1[C@@H]2C(=O)NC[C@H](O)c1ccccc1	not satisfied
COc1ccc(COC(=O)NN=C2C[C@@H](O)[C@@H](O)[C@@H]3[C@@H]4C(=O)N(Cc5ccc6c(c5)OCO6)C(=O)[C@@H]4CC[C@@H]23)cc1	not satisfied

---

biological target: Pro-neuregulin-1, membrane-bound isoform (Homo sapiens); assay: NRG1 binders on small-molecule microarrays, primary screen, psychiatric disease protein project, biochemical, small-molecule microarray, fluorescence 635/667 (AID 1075); settings: NRG1 binding, 635 nm fluorescence, higher = more signal;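 further: score combines 667 nm spot fluorescence with signal to noise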
metric name: composite z-score

compound	metric name	recorded number
CCOC(=O)NN=C1C[C@@H](O)[C@@H](O)[C@@H]2[C@@H]3C(=O)N(C4CCCCC4)C(=O)[C@@H]3CC[C@H]12	composite z-score	0.215
Cc1cc2c(nc1C)CCCN2CC(C)ON=C1[C@H]2CCn3c(=O)n(-c4ccccc4)c(=O)n3[C@H]2[C@H](O)[C@@H]2O[C@H]12 (some centres not stated)	composite z-score	0.0785
CO[C@@H]1COC(=O)CC=C[C@@H](C)[C@H](OC)COC(=O)[C@H](COCc2ccccc2)NC(=O)CC=C[C@H]1C	composite z-score	-0.673
CC(C)(C)N1C(=O)[C@H]2[C@H]3[C@H](O)[C@H](O)CC(=NOCc4ccccc4)[C@@H]3CC[C@H]2C1=O	composite z-score	0.583
CC(C)CON=C1[C@H]2CCn3c(=O)n(-c4ccccc4)c(=O)n3[C@H]2[C@H](O)[C@@H]2O[C@H]12	composite z-score	-0.0371
CCOC(=O)NN=C1C[C@@H](O)[C@@H](O)[C@@H]2[C@@H]3C(=O)N(CC)C(=O)[C@@H]3CC[C@@H]12	composite z-score	-0.008
COCCOC(=O)N1C(=O)[C@@]2(c3cc(C#Cc4ccc(OC)cc4)ccc31)[C@H](c1ccc(O)cc1)N1[C@H](c3ccccc3)[C@H](c3ccccc3)OC(=O)[C@H]1[C@@H]2C(N)=O	composite z-score	1.17
